B1: C20orf112 (parent)
chain: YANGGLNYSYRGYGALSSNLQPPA

- Variants of: B1
- TEST DESCRIPTION: protein stability index of a GFP-peptide fusion (GPS, HEK-293T) (PSI 1-6); higher = more stable;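 note: lentivirally expressed fusions sorted by FACS into six bins by GFP to DsRed ratio, PSI derived from sequencing read proportions per bin multiplied by bin number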
- CONDITION DESCRIPTION: c terminus: a fixed tail appended
MEASURED PARAMETER: protein stability index

mutations=A24G test_result=3.04
mutations=P23R test_result=1.81
mutations=L16I test_result=2.43
mutations=Y1C test_result=1.96
mutations=Y10I test_result=1.99
mutations=A15S test_result=2.22
mutations=R11P test_result=2.06
mutations=N7I test_result=2.27
mutations=N3D test_result=2.56
mutations=A24I test_result=2.43
mutations=G12F test_result=1.67
mutations=L20N test_result=2.11
mutations=L6V test_result=1.85
mutations=S17R test_result=2.56
mutations=G5Q test_result=1.93
mutations=L6N test_result=1.47
mutations=Q21D test_result=2.22
mutations=P23A test_result=1.81
mutations=G12H test_result=2.55
mutations=A2T test_result=1.99
mutations=G14L test_result=3.28
mutations=N7G test_result=3.08
